Reported growth values for a set of compounds
Tested on: NCI-H460 lung
Procedure summary: NCI-60 one-dose screen, 48 h (100 = growth as untreated, 0 = no growth, -100 = all killed)
Condition: 10 µM unless noted
Compounds without any hit were thinned out: in the full panel of roughly 83,000, 20% have a hit.
Express it in %; write the number only.

{"columns": ["Compound", "Unit descriptor", "growth"],
 "data": [
  ["COc1cc(OC)c(S(N)(=O)=O)cc1C(=O)/C=C/c1ccc(C)cc1", "%", -3.51],
  ["CC(=O)C1=C(C)NC(NNC(N)=S)=NC1c1ccccc1 (stereo not given)", "%", 104],
  ["CC1(C)CC[C@]2(C(=O)N3CCOCC3)CC[C@]3(C)C(=CC[C@@H]4[C@@]5(C)C/C(=C/c6ccco6)C(=O)C(C)(C)[C@@H]5CC[C@]43C)[C@@H]2C1", "%", 98.5],
  ["COc1ccc(C(=O)c2c(N)c(C#N)cn2-c2ccccc2OC)cc1", "%", 17.4]
]}

Next:
Prompt line: I'd like to know its growth. The compound in question is Nc1cc(F)ccc1NC(=O)c1ccc(NC(=O)C/C=C/c2cccnc2)cc1
Response line: 56.8

====

Tested on: OVCAR-4 ovarian
Procedure summary: NCI-60 one-dose screen, 48 h
Condition: 10 µM unless noted
About 83,000 compounds went through this panel and 20% of them were active in at least one assay; those are over-represented in the sample as a whole. Activity calls are given as the source filed them. How the source made its calls: active means growth percent below 10; inactive means the rest.
Your answer must be one of the following: active, inactive

{"columns": ["Mol", "Assay target", "Cat"],
 "data": [
  ["O=C(NCc1ncc[nH]1)c1ccc(-c2nc3ccc4[nH]ncc4c3c3c2CCCC3)cc1", "OVCAR-4 ovarian", "inactive"]
]}

Prompt line: Please indicate how the test categorized CC[C@]12C=CCN3CC[C@@]4(c5cc(NC(=O)COc6cc(O)c7c(=O)cc(-c8ccccc8)oc7c6)c(OC)cc5N(C)[C@H]4[C@@](O)(C(=O)OC)[C@@H]1OC(C)=O)[C@@H]32 .
Response line: active

Prompt line: Would you mind doing CCCCCc1ccc(S(=O)(=O)Nc2cccc(-c3csc(NC(=O)CN4CCN(CCO)CC4)n3)c2)cc1 as well?
Response line: inactive

====

Tested on: EKVX NSCLC
Procedure summary: NCI-60 one-dose screen, 48 h (100 = growth as untreated, 0 = no growth, -100 = all killed)
Condition: 10 µM unless noted
This is part of a sample that, as a whole, favours compounds with a hit. Of some 83,000 tested, about 20% had one in any assay.
Friendly reminder: growth below 90% is Satisfied, at or above is Not satisfied.

Example entries begin here.
{"columns": ["Molecule", "Cat"],
 "data": [
  ["Cn1cc(-c2cc(N)n3nc(-c4cn(C)c5ccccc45)cc3n2)c2ccccc21", "Not satisfied"],
  ["CN1CCN(Cc2ccc(NC(=O)c3cncc(C#Cc4cnc5ccc(N6CCN(C)CC6)nn45)c3)cc2C(F)(F)F)CC1", "Satisfied"],
  ["NC(N)=Nc1ccc(Nc2cccc(Nc3ccc(Cl)c(C(F)(F)F)c3)c2)cn1", "Satisfied"],
  ["Cc1ccc(NC(=O)c2ccc(CN3CCN(C)CC3)cc2)cc1Oc1ccc(-c2[nH]nc3ncnc(N)c23)cc1", "Not satisfied"]
]}

Prompt line: Does this molecule meet the criterion growth < 90%? CCOC(=O)C1=NNC(c2ccc(Cl)cc2)C1C(=O)N1C(=S)NC(=O)C1CC(C)C (centres undefined)
Response line: Satisfied

Prompt line: Would you mind doing Cc1ccc(-c2nn(-c3ccccc3)cc2/C=C/C(=O)c2ccc(NC(=O)CCCCCCC(=O)NO)cc2)cc1 as well?
Response line: Satisfied

Prompt line: Would you mind doing CCc1nn2c(C)cc(C)nc2c1Cc1ccc(/C=C/CN2CCN(CCOCCOCCN3CCN(C/C=C/c4ccc(Cc5c(CC)nn6c(C)cc(C)nc56)cc4)CC3)CC2)cc1 as well?
Response line: Satisfied
